target: ERα (Homo sapiens); experiment: ERE-luciferase reporter assay; assay type: cell-based; conditions: MCF-7:ws8 cells, normalized to Ctrl (0%) and E2 1 nM (100%)
Sequence (P03372 whole entry): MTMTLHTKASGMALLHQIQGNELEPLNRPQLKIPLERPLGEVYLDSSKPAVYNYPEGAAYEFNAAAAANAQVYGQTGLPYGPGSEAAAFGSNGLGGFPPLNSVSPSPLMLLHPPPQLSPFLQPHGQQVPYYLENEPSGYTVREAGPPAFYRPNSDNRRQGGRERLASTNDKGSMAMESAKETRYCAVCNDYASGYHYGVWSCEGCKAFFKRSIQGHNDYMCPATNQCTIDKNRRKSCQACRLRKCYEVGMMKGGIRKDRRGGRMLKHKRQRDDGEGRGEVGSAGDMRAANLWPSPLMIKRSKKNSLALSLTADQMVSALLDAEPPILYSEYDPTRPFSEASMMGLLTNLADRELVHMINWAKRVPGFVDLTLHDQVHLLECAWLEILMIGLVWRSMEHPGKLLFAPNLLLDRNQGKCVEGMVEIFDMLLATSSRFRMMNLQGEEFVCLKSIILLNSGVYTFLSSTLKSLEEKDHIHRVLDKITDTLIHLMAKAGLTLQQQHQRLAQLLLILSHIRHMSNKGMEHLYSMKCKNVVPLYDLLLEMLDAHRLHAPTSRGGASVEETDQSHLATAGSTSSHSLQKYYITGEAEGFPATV
assay_endpoint: Efficacy (% E2)

See these solved cases before continuing.
- compound: "CS(=O)(=O)c1ccc(C(=O)c2sc3cc(O)ccc3c2-c2ccc(F)cc2)cc1 [Compound 21a]"
  unit_annotation: "% E2"
  Efficacy (% E2): 100
- compound: "O=C(c1sc2cc(O)ccc2c1-c1ccc(F)cc1)C1CCCCC1 [Compound 21g]"
  unit_annotation: "% E2"
  Efficacy (% E2): 100
- compound: "O=C(c1ccc(O)cc1)c1sc2cc(O)ccc2c1-c1ccc(F)cc1 [Compound 21b]"
  unit_annotation: "% E2"
  Efficacy (% E2): 100

[A] Oc1ccc2c(-c3ccc(F)cc3)c(Oc3ccc(Cl)cc3)sc2c1 [Compound 30b]
[B] Oc1ccc(Oc2c(-c3ccc(F)cc3)sc3cc(O)ccc23)cc1 [Compound 19]
Compare the recorded Efficacy (% E2) of A and B ; state which is larger. Let me know the label of the one you choose.
B
(B: 100 % E2, A: 70 % E2)

Each recorded value in this set is attributed to paper PMC4779956.
